# System: Vero E6 infected with SARS-CoV-2
# assayName: inhibition of SARS-CoV-2 cytopathic effect; higher = more antiviral protection, active = above 15
# statedConditions: 8.33 nM; 48 h
readoutLabel: inhibition of SARS-CoV-2 cytopathic effect (%)
Numbers only; they are read as %.

Worked examples follow.
compound: O=C(/C=C/c1ccc2ccc(C(F)(F)F)cc2n1)c1ccncc1
measuredOn: Vero E6 infected with SARS-CoV-2
unitOfMeasure: %
valueReported: 0
--
compound: NC(=O)c1ncn([C@@H]2O[C@H](CO)[C@@H](O)[C@H]2O)c1N
measuredOn: Vero E6 infected with SARS-CoV-2
unitOfMeasure: %
valueReported: 2.34
--
compound: CCN(CC)CCOc1ccc2c(c1)C(=O)c1cc(OCCN(CC)CC)ccc1-2
measuredOn: Vero E6 infected with SARS-CoV-2
unitOfMeasure: %
valueReported: 0.89
--
compound: CC1=C(C(=O)O)N2C(=O)[C@@H](NC(=O)[C@H](N)c3ccc(O)cc3)[C@H]2SC1
measuredOn: Vero E6 infected with SARS-CoV-2
unitOfMeasure: %
valueReported: 1.53
--
compound: COC(=O)C1=C(C)NC(C)=C(C(=O)OCC(C)C)C1c1ccccc1[N+](=O)[O-] (stereo not drawn)
measuredOn: Vero E6 infected with SARS-CoV-2
unitOfMeasure: %
valueReported: 0.72
--
compound: O=C1C(=O)N(Cc2ccc(Cl)c(Cl)c2)c2ccccc21
measuredOn: Vero E6 infected with SARS-CoV-2
unitOfMeasure: %
valueReported: -0.59
--
compound: CCN(CC)CCOc1ccc(Nc2ncc3cc(-c4c(Cl)cccc4Cl)c(=O)n(C)c3n2)cc1
measuredOn: Vero E6 infected with SARS-CoV-2
unitOfMeasure: %
valueReported: -0.21
--
compound: COc1cccc(C(=O)CCN[C@@H](C)[C@H](O)c2ccccc2)c1
measuredOn: Vero E6 infected with SARS-CoV-2
unitOfMeasure: %
valueReported: 1.34

Lookup: // inhibition of SARS-CoV-2 cytopathic effect lookup, key: "CNC(=O)c1ccccc1Nc1nc(Nc2ccc(N3CCOCC3)cc2OC)ncc1Cl"
Found: -2.52

Lookup: Using the record for "CCCCOc1ccc(CC(=O)NO)cc1" , report its inhibition of SARS-CoV-2 cytopathic effect.
Found: -0.68

Lookup: Requested field: inhibition of SARS-CoV-2 cytopathic effect. Item: "CCCCCOc1ccc(-c2cc(-c3ccc(C(=O)N[C@H]4C[C@@H](O)[C@@H](O)NC(=O)[C@@H]5[C@@H](O)[C@@H](C)CN5C(=O)[C@H]([C@H](O)CC(N)=O)NC(=O)[C@H]([C@H](O)[C@@H](O)c5ccc(O)c(OS(=O)(=O)O)c5)NC(=O)[C@@H]5C[C@@H](O)CN5C(=O)[C@H]([C@@H](C)O)NC4=O)cc3)no2)cc1"
Found: -5.65

Lookup: Tell me the measured inhibition of SARS-CoV-2 cytopathic effect of "CC(C)(C)c1cc(C(C)(C)C)c(NC(=O)c2c[nH]c3ccccc3c2=O)cc1O" , please.
Found: 1.11

Lookup: # input compound: "CC1(C)O[C@@H]2C[C@H]3[C@@H]4CCC5=CC(=O)C=C[C@]5(C)[C@@]4(F)[C@@H](O)C[C@]3(C)[C@]2(C(=O)CO)O1" ; wanted: its inhibition of SARS-CoV-2 cytopathic effect
Found: -0.04
